The values you see were collected from paper PMC8878717.

tested on: human dermal fibroblasts (HDF); assay: MTT cytotoxicity test on HDF cells; format: cell-based; settings: Homo sapiens, Fibroblast; HDF, 72 h culture; read-out: EC50 HDF
Measured endpoint: EC50

Request: What value of measured EC50 is listed for "O=C(O)CON=C1CCCCC1" ?
Result: 90 to 100 µM

----------
Assay: MTT cytotoxicity test on HDF cells
Assay type: cell-based, human
Details: human, human dermal fibroblasts (HDF); 100 μg/mL, 24 h exposure
Protocol: Therefore, compounds showing the highest cytotoxicity (8, 9, 18, 22, 24–27) were further tested on normal human dermal fibroblasts (HDF), A549, Caco-2, and HeLa cells to compare their activity after 24 h and 72 h culture (Figure 5 and Figure 6). […]
Measured endpoint: viability at 24 h, 100 μg/mL

Request: What value of measured viability at 24 h, 100 μg/mL is listed for "O=C(O)CON=C1CCCCC1" ?
Result: ~20%
